# target.entity: mTOR (Homo sapiens, UniProt P42345)
# method: mTOR kinase inhibition, Lance Ultra assay
# Assay type: biochemical
# test.settings: mTOR, IC50, mean ± SD of triplicate measurements
endpoint.label: log10 of IC50 (log10 of the value in µM)
On a log10 scale: recorded IC50, unit µM.

Query block: Bench note: what log10 of IC50 did NCC(=O)Nc1ccccc1/N=c1\cc(-c2ccc3c(c2)OCO3)oc2c(N)cccc12 show?
Result block: 0.79

Query block: Bench note: what log10 of IC50 did NCCC(=O)Nc1ccccc1/N=c1\cc(-c2ccc3nc(N)oc3c2)oc2ccc(F)cc12 [Compound 12k] show?
Result block: -0.78

Query block: Bench note: what log10 of IC50 did CS(=O)(=O)NCCC(=O)Nc1ccccc1/N=c1\cc(-c2ccc3nc(N)oc3c2)oc2ccccc12 [Compound 12d] show?
Result block: 0.53

Query block: Bench note: what log10 of IC50 did COc1ccc2oc(-c3ccc4nc(N)oc4c3)c/c(=N\c3ccccc3NC(=O)CCN)c2c1 [Compound 12j] show?
Result block: -1.31

Query block: Bench note: what log10 of IC50 did CNCCC(=O)Nc1ccccc1/N=c1\cc(-c2ccc3nc(N)oc3c2)oc2ccccc12 [Compound 12c] show?
Result block: -0.33

Query block: Bench note: what log10 of IC50 did NCCC(=O)Nc1ccccc1/N=c1\cc(-c2ccc3c(c2)OCO3)oc2ccccc12 show?
Result block: -0.50

Query block: Bench note: what log10 of IC50 did NCCCC(=O)Nc1ccccc1/N=c1\cc(-c2ccc3c(c2)OCO3)oc2ccccc12 show?
Result block: 0.91

Query block: Bench note: what log10 of IC50 did NCCC(=O)Nc1ccccc1/N=c1\cc(-c2ccc3nc(N)oc3c2)oc2ccc(O)cc12 [Compound 12n] show?
Result block: -1.58

Query block: Bench note: what log10 of IC50 did COCCC(=O)Nc1ccccc1/N=c1\cc(-c2ccc3nc(N)oc3c2)oc2ccccc12 [Compound 12b] show?
Result block: 0.53

* * *

Exercise: state measured IC50 for each of the molecules provided.
# target.entity: mTOR (Homo sapiens, UniProt P42345)
# method: mTOR kinase inhibition, Lance Ultra assay
# Assay type: biochemical
# test.settings: mTOR, IC50, mean ± SD of triplicate measurements

Query block: Bench note: what IC50 did NCC(=O)Nc1ccccc1/N=c1\cc(-c2ccc3c(c2)OCCO3)oc2cc(F)ccc12 show?
Result block: > 10 µM

Query block: Bench note: what IC50 did CCN(CC)CCC(=O)Nc1ccccc1/N=c1\cc(-c2ccc3nc(N)oc3c2)oc2ccccc12 [Compound 12f] show?
Result block: > 10 µM

Query block: Bench note: what IC50 did COCCC(=O)Nc1ccccc1/N=c1\cc(-c2ccc3c(c2)OCO3)oc2ccccc12 show?
Result block: > 10 µM

Query block: Bench note: what IC50 did C[C@H](N)C(=O)Nc1ccccc1/N=c1\cc(-c2ccc3c(c2)OCCO3)oc2c(N)cccc12 show?
Result block: > 10 µM

Query block: Bench note: what IC50 did N[C@@H](CO)C(=O)Nc1ccccc1/N=c1\cc(-c2ccc3c(c2)OCO3)oc2ccccc12 show?
Result block: > 10 µM
